These data points were gathered from ChEMBL document CHEMBL1201862.

# Tested on: HOP-92
# ASSAY: NCI tumour cell line growth inhibition, 48 h
Active and inactive are the calls of the source. No stated cut-off is given here; in the data, active = GI50 up to about 1.1 µM and inactive = higher.
Hello, when you answer, please use one of the following outcomes: active, inactive

>  <COMPOUND>
N#CSC/C(Cl)=C/Cl.N#CSC/C(Cl)=C\Cl

>  <CAT>
inactive

$$$$
>  <COMPOUND>
CN(C)c1ccc(/C=N\NC(=O)CSCC(=O)N/N=C/c2ccc(N(C)C)cc2)cc1

>  <CAT>
inactive

$$$$
>  <COMPOUND>
COc1c2c3c4c(c(OC)c(=O)c5c(O)cc(OC)c(c6c(OC)cc(O)c(c1=O)c63)c54)C(C(C)O)C2C(C)=O (stereo not given)

>  <CAT>
active

$$$$

Just curious, what result did COc1cccc(C23CCN(C)C(CC(O)C2)C3)c1OC (stereo not given) get here? inactive

Same question, "Nc1ccccc1-c1noc(=O)[nH]1" this time inactive

---

# Tested on: M14
# ASSAY: NCI tumour cell line growth inhibition, 48 h
Calls of active or inactive are those of the source. Cut-off read from the data, not from the text of the source: active = GI50 up to about 1.1 µM and inactive = higher.
Hello, when you answer, please use one of the following outcomes: label 1 for active, label 0 for inactive

Examples from the recorded data:
>  <MOLECULE>
Cc1cccc(/C=N/NC(=S)NC(C)(C)C)n1

>  <CAT>
label 0

$$$$
>  <MOLECULE>
O=c1c2cc(-c3ccccc3)sc2nc2sc(-c3ccccc3)nn12

>  <CAT>
label 0

$$$$
>  <MOLECULE>
Cc1nc(C)c(N2CCN(C(=O)O)CC2)c(O)n1

>  <CAT>
label 0

$$$$

Just curious, what result did "O=C1c2c(F)c(F)c(F)c(F)c2SC2=Nc3cccc4cccc(c34)N12" get here? label 0

Same question, "Oc1cc(-c2ccccc2)nc2ncccc12" this time label 1

Same question, COc1cc2c3c(c1OC)C1(C=CC(=O)C=C1)CC3NCC2 (stereo unspecified) this time label 0

Same question, "CC1=C(C(=O)Nc2c(C)cccc2C)C(c2ccccc2Cl)C(C(=O)Nc2c(C)cccc2C)=C(C)N1" this time label 0

Same question, C=CCCC1(C)CCCNC1=S (stereo unspecified) this time label 0

Same question, "O=c1c2ccccc2oc2ccccc12.Oc1cccc2cccnc12" this time label 0

Same question, COc1c2c3c4c(c(OC)c(=O)c5c(O)cc(OC)c(c6c(OC)cc(O)c(c1=O)c63)c54)C(C(C)O)C2C(C)=O (stereo unspecified) this time label 1

Same question, CN(Cc1cnc2nc(N)nc(N)c2n1)c1ccc(C(=O)NC(CCC(=O)NC(P(=O)(O)O)P(=O)(O)O)C(=O)O)cc1 (stereo unspecified) this time label 0

Same question, "Cc1ccc(NC(=O)CC(=O)n2nc(C)c(/N=N/c3ccccc3C(=O)O)c2C)cc1" this time label 0

Same question, "Cc1ccc(-c2cc(-c3ccccc3)nc(N)n2)c(O)c1" this time label 0

Same question, "Nc1ccc(Oc2ccc(C34CC5CC(C3)CC(c3ccc(Oc6ccc(N)cc6C(F)(F)F)cc3)(C5)C4)cc2)c(C(F)(F)F)c1" this time label 0

Same question, "COc1ccc(CNc2nc(NCc3ccc(OC)cc3)nc(N3CCOCC3)n2)cc1" this time label 0

Same question, "O=c1cc[nH]c2ccc3nn[nH]c3c12" this time label 0

Same question, "CN(CCNC(=O)c1nn(-c2ccccc2)c2c1Cc1ccccc1-2)CCNC(=O)c1nn(-c2ccccc2)c2c1Cc1ccccc1-2" this time label 0

Same question, "COc1cccc2c1Cc1cc(-c3ccccc3)[n+](C)n1-2" this time label 0

Same question, CN(Cc1cnc2c(n1)C(N)=NN(N)N2)c1ccc(C(=O)NC(CCP(=O)(O)O)C(=O)O)cc1 (stereo unspecified) this time label 0

Same question, O=C1NC(O)c2ccccc2O1 (stereo unspecified) this time label 0

Same question, "CCOc1ccccc1NC(=O)C1=C(C)NC(C)=C(C(=O)Nc2ccccc2OCC)C1c1ccc([N+](=O)[O-])cc1" this time label 0
